ASSAY DETAILS: CCTE_Mundy_HCI_Cortical_Synap_Neur_Matur_CellBodySpotCount: CCTE's Synaptogenesis and Neurite Maturation Assay in rat cortical cells for Cell Body Spot Count, Mundy Lab (AID 2284223)
Description: CCTE_Mundy_HCI_Cortical_Synap&Neurite_Matur is a multiplexed, cell-based-readout assay that uses rat primary cortical cells with measurements taken at 288.33 hours after chemical dosing in a microplate: 96-well plate.CCTE_Mundy_HCI_Cortical_Synap_Neur_Matur_CellBodySpotCount is one of eight components of the CCTE_Mundy_HCI_Cortical_Synap&Neurite_Matur assay. […]
The source made the active and inactive calls. Rule for the calls: active = hit-call score of the fitted dose curve at least 0.9, where 1 is the maximum; inactive = score below 0.9.
Pick one and only one: T = active, F = inactive

Just curious, what result did ClC1=C(Cl)C2(Cl)C3C(Cl)C=CC3C1(Cl)C2(Cl)Cl (centres undefined) get here? T

Just curious, what result did CNC(=O)Oc1cccc2c1OC(C)(C)C2 get here? F

Just curious, what result did COP(=S)(OC)SCN1C(=O)c2ccccc2C1=O get here? F

Just curious, what result did CC(C)COC(=O)c1ccccc1C(=O)OCC(C)C get here? T

Just curious, what result did CCC[CH2][Sn]([Cl])([CH2]CCC)[CH2]CCC get here? T

Just curious, what result did CN(C)[C@@H]1C(=O)C(C(N)=O)=C(O)[C@@]2(O)C(=O)C3=C(O)c4c(O)cccc4[C@@](C)(O)[C@H]3C[C@@H]12 get here? F

Just curious, what result did [O-][Cl+]O get here? F

Just curious, what result did OCCOCCO get here? F

Just curious, what result did CCCCOC(=O)c1ccccc1C(=O)OCc1ccccc1 get here? F

====

ASSAY DETAILS: CCTE_Mundy_HCI_Cortical_Synap_Neur_Matur_NeuronCount: CCTE's Synaptogenesis and Neurite Maturation Assay in rat cortical cells for Neuron Count, Mundy Lab (AID 2284242)
Procedure: CCTE_Mundy_HCI_Cortical_Synap&Neurite_Matur is a multiplexed, cell-based-readout assay that uses rat primary cortical cells with measurements taken at 288.33 hours after chemical dosing in a microplate: 96-well plate.CCTE_Mundy_HCI_Cortical_Synap_Neur_Matur_NeuronCount is one of eight components of the CCTE_Mundy_HCI_Cortical_Synap&Neurite_Matur assay. It measures cell viability related to number of neurons using High Content Imaging of fluorescently labelled markers.[…] […]
Inconclusive results are not listed. The source made the active and inactive calls. Rule for the calls: active = hit-call score of the fitted dose curve at least 0.9, where 1 is the maximum; inconclusive = response in the unintended direction; inactive = score below 0.9.
READOUT KIND: outcome

CNC(=O)Oc1cccc2c1OC(C)(C)C2; inactive
COC(=O)Nc1nc2ccccc2[nH]1; inactive
[O-][Cl+]O; inactive

====

ASSAYED TARGET: Estrogen receptor beta (Homo sapiens) (UniProt Q92731)
Sequence (Q92731 whole entry, looked up, the tested form may be a part): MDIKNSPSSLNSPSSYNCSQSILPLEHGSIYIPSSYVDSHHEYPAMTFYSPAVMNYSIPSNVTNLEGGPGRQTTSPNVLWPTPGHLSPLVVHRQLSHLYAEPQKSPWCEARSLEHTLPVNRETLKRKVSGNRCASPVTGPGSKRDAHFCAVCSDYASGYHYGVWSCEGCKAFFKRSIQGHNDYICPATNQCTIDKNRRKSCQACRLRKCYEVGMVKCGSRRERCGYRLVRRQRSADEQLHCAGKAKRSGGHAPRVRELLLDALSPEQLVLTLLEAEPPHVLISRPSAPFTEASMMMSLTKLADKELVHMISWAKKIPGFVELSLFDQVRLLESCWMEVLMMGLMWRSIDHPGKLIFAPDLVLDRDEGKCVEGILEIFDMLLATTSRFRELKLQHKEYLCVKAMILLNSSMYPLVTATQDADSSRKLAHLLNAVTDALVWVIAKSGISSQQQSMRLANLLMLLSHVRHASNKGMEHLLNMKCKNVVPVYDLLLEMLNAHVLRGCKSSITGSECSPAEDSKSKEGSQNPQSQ
ASSAY DETAILS: OT_ER_ERbERb_1440: Odyssey Thera (OT) 24-hour HEK293T Protein-Complementation Assay for Estrogen Receptor-beta/-beta Homodimer (AID 2283380);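 note: fluorescence gain from ER beta LBD homodimer complementation read by laser scanning cytometry; scored as signal increase over DMSO baseline for both agonists and antagonists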
Activity calls are given as the source filed them. Rule for the calls: active = hit-call score of the fitted dose curve at least 0.9, where 1 is the maximum; inconclusive = response in the unintended direction; inactive = score below 0.9.
Pick one and only one: yes (active), no (inactive)

Just curious, what result did Clc1ccc(Cl)c(Cl)c1 get here? no

Just curious, what result did CO[C@@H]1[C@H](OC(=O)NC(=O)CCl)CC[C@]2(CO2)[C@H]1[C@@]1(C)O[C@@H]1CC=C(C)C get here? no

Just curious, what result did Nc1ccc(N=Nc2ccccc2)cc1 get here? yes

Just curious, what result did CCCCCCCCOC(=O)c1ccc(C(=O)OCCCCCCCC)c(C(=O)OCCCCCCCC)c1 get here? no

Just curious, what result did OCCCl get here? no

Just curious, what result did CCCCCOC(=O)c1ccccc1C(=O)OCCCCC get here? no

Just curious, what result did Clc1ccccc1Cl get here? yes

Just curious, what result did OCCCBr get here? no

Just curious, what result did Clc1ccc(C(c2ccc(Cl)cc2)C(Cl)(Cl)Cl)cc1 get here? yes

Just curious, what result did CC(O)CCO (configuration not stated) get here? no

Just curious, what result did CC(C)(O)c1cnn2c(-c3ccc(F)c(-c4c(F)cccc4C#N)c3)cnc2n1 get here? yes

Just curious, what result did CC(C)COC(=O)c1ccccc1C(=O)OCC(C)C get here? no

Just curious, what result did O=C(N[C@H](c1ccccc1)[C@@H]1CN2CCC1CC2)c1c(Cl)ccc(C(F)(F)F)c1Cl get here? no

Just curious, what result did Cc1cc(N=Nc2ccccc2C)ccc1N get here? yes

Just curious, what result did ClC1=C(Cl)C2(Cl)C3C(Cl)C=CC3C1(Cl)C2(Cl)Cl (configuration not stated) get here? no

Just curious, what result did CS(=O)(=O)NC(=O)c1cc(Oc2ccc(C(F)(F)F)cc2Cl)ccc1[N+](=O)[O-] get here? no

Just curious, what result did N#CC(Br)Br get here? no

Just curious, what result did Nc1ccc([N+](=O)[O-])cc1 get here? no

Just curious, what result did OCCOCCO get here? no

Just curious, what result did CC(C)(C)OOC(C)(C)CCC(C)(C)OOC(C)(C)C get here? no

Just curious, what result did [O-][Cl+]O get here? no

Just curious, what result did O=[N+]([O-])C(Br)(CO)CO get here? no

====

ASSAY DETAILS: Tanguay_ZF_120hpf_YSE_legacy: (Legacy) Oregon State University Tanguay Lab 120 Hour Post-fertilization zebrafish Assay for Yolk Sac Edema (AID 2283634)
Experimental: Tanguay_ZF_120hpf_legacy is a whole embryo, multiplexed endpoint assay using zebrafish larvae exposed for 120 hours post fertilization on a 96-well plate.Tanguay_ZF_120hpf_YSE_legacy is one of one assay component(s) measured or calculated from the Tanguay_ZF_120hpf_legacy assay. […] This assay endpoint, Tanguay_ZF_120hpf_YSE_legacy, was analyzed in the positive analysis fitting direction relative to DMSO as the negative control and baseline of activity. […]
Records with an inconclusive call do not appear. Activity calls are given as the source filed them. How the source made its calls: active means hit-call score of the fitted dose curve at least 0.9, where 1 is the maximum; inconclusive means response in the unintended direction; inactive means score below 0.9.
Pick one and only one: y (active), n (inactive)

Just curious, what result did CCN(CC)CCO get here? n

Just curious, what result did CCOC(=O)[C@]1(c2ccccc2)Oc2ccccc2[C@@H]1N get here? n

Just curious, what result did Cc1ccc([N+](=O)[O-])cc1 get here? n

Just curious, what result did O=[N+]([O-])c1ccc(Oc2ccc(Cl)cc2Cl)cc1 get here? n

Just curious, what result did CC(C)(OOC(C)(C)c1ccccc1)c1ccccc1 get here? n

Just curious, what result did Clc1ccc(C(c2ccc(Cl)cc2)C(Cl)(Cl)Cl)cc1 get here? n

Just curious, what result did OCCCl get here? n

Just curious, what result did COC(=O)c1ccccc1N get here? n

Just curious, what result did Cn1cc(-c2ccccc2)c(=O)c(-c2cccc(C(F)(F)F)c2)c1 get here? n

Just curious, what result did O=C(Nc1ccccc1)c1ccccc1I get here? y

Just curious, what result did CCOc1cccc(C2(N3CCN(c4ccccc4)CC3)CCC(C)CC2)c1 (stereo not drawn) get here? n

Just curious, what result did CCCCC(CC)COC(=O)c1ccc(C(=O)OCC(CC)CCCC)c(C(=O)OCC(CC)CCCC)c1 (stereo not drawn) get here? n

Just curious, what result did Cc1ccc(N)c(N)c1 get here? n

====

ASSAY DETAILS: APR_HepG2_MitoMembPot_24hr: Apredica 24-hour HepG2 Assay for Mitochondrial Membrane Potential (AID 2282911)
RUN PARAMETERS: imaging, actives raise or lower the signal
Activity calls are given as the source filed them. The calls were made as follows: active = hit-call score of the fitted dose curve at least 0.9, where 1 is the maximum; inactive = score below 0.9.
Pick one and only one: true (1) = active, false (0) = inactive

Just curious, what result did CCC12COCN1COC2 get here? false (0)

Just curious, what result did Nc1cc(Cl)cc(C(=O)O)c1Cl get here? false (0)

Just curious, what result did ClC1=C(Cl)[C@]2(Cl)[C@H]3[C@H]([C@@H]4C=C[C@H]3C4)[C@@]1(Cl)C2(Cl)Cl get here? false (0)

Just curious, what result did Cn1cc(-c2ccccc2)c(=O)c(-c2cccc(C(F)(F)F)c2)c1 get here? false (0)

Just curious, what result did Cc1ccc([N+](=O)[O-])cc1 get here? false (0)

Just curious, what result did CCCCOC(=O)c1ccccc1C(=O)OCc1ccccc1 get here? false (0)

Just curious, what result did CCN(CC)CCO get here? false (0)

Just curious, what result did Clc1ccc(C(c2ccc(Cl)cc2)C(Cl)Cl)cc1 get here? true (1)

Just curious, what result did Oc1ccc2ccc3cccc4ccc1c2c34 get here? true (1)

Just curious, what result did C[N+](C)(C)CC1CO1 (stereo not given) get here? false (0)

====

ASSAY DETAILS: LTEA_HepaRG_LDH_cytotoxicity: Cytotoxicity Assessment in the Life Technologies and Expression Analysis (LTEA) Assay (AID 2283563)
Calls of active or inactive are those of the source. Rule for the calls: active = hit-call score of the fitted dose curve at least 0.9, where 1 is the maximum; inconclusive = response in the unintended direction; inactive = score below 0.9.
Pick one and only one: T = active, F = inactive

Just curious, what result did CCN(CC)N=O get here? F

Just curious, what result did CCOc1cccc(C2(N3CCN(c4ccccc4)CC3)CCC(C)CC2)c1 (stereo not drawn) get here? F

Just curious, what result did COc1cc(C=O)cc2c1[C@H](COC(N)=O)[C@]1(OC(C)=O)ON2C[C@H]2[C@@H]1N2C(C)=O get here? T

Just curious, what result did O=C(N[C@H](c1ccccc1)[C@@H]1CN2CCC1CC2)c1c(Cl)ccc(C(F)(F)F)c1Cl get here? T

Just curious, what result did O=P(OCCCl)(OCCCl)OCCCl get here? F

Just curious, what result did CCN(CC)CCO get here? F

Just curious, what result did Cc1ccc(N)cc1 get here? F

Just curious, what result did O=C(Nc1ccccc1)c1ccccc1I get here? T

Just curious, what result did O=C1CCCO1 get here? F

Just curious, what result did CC(C)(C)OOC(=O)c1ccccc1 get here? F

Just curious, what result did ClC1=C(Cl)[C@]2(Cl)[C@H]3[C@H]([C@@H]4C=C[C@H]3C4)[C@@]1(Cl)C2(Cl)Cl get here? F

Just curious, what result did COP(=S)(OC)SCN1C(=O)c2ccccc2C1=O get here? F

Just curious, what result did Nc1ccc(Oc2ccc(N)cc2)cc1 get here? F
